List of AC50 values.
biological target: Prostaglandin G/H synthase 1 (Rattus norvegicus); type: functional; further: assay procedure not described here
Sequence (Q63921 whole entry): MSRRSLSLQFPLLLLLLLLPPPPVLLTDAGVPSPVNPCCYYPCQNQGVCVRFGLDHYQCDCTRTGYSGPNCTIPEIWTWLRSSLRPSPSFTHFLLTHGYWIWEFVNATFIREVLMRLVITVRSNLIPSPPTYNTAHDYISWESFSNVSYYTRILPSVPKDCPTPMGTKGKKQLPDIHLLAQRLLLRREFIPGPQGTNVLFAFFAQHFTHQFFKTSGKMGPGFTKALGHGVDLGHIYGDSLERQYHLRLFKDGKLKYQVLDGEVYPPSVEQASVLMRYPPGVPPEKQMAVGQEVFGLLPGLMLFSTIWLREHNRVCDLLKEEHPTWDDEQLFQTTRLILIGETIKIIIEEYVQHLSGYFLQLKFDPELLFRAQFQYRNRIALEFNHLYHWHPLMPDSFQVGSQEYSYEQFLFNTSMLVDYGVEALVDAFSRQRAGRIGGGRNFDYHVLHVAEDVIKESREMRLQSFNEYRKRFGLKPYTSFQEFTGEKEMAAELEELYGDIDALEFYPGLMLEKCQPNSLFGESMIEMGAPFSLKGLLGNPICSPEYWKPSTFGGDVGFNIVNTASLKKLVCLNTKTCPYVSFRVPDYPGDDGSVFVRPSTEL

// known answers, use as guide
CCN(CC)CCn1c(=O)c(Cc2ccc(OC)cc2)nc2ccccc21 [CAROVERINE]	15.8 µM
O=C(O)c1ccc2nc(-c3cc(Cl)cc(Cl)c3)oc2c1	> 30 µM
C[C@H](CS)C(=O)N1CCC[C@H]1C(=O)O [CAPTOPRIL]	> 30 µM
COc1nc(C)nc(Cl)c1N=C1NCCN1 [MOXONIDINE]	> 30 µM

Name the recorded AC50 for Nc1cc(N2CCCCC2)nc(N)[n+]1[O-] [MINOXIDIL] .
> 30 µM

Subsequent entry: CC(C)(N)Cc1ccccc1 [PHENTERMINE]
> 30 µM

Subsequent entry: COC(=O)[C@H]1[C@H]2C[C@@H]3c4[nH]c5ccccc5c4CCN3C[C@H]2C[C@@H](OC(=O)c2cc(OC)c(OC)c(OC)c2)[C@@H]1OC [DESERPIDINE]
34.3 µM

Subsequent entry: "C=CC1=C(C(=O)O)N2C(=O)[C@@H](NC(=O)/C(=N\O)c3csc(N)n3)[C@H]2SC1"
> 30 µM

Subsequent entry: CCN(CCO)CCCC(C)Nc1ccnc2cc(Cl)ccc12 (centres undefined) [HYDROXYCHLOROQUINE]
> 10 µM

###

List of AC50 values.
biological target: Amine oxidase [flavin-containing] A (Homo sapiens, UniProt P21397); format: functional; further: assay procedure not described here
Sequence (P21397 whole entry): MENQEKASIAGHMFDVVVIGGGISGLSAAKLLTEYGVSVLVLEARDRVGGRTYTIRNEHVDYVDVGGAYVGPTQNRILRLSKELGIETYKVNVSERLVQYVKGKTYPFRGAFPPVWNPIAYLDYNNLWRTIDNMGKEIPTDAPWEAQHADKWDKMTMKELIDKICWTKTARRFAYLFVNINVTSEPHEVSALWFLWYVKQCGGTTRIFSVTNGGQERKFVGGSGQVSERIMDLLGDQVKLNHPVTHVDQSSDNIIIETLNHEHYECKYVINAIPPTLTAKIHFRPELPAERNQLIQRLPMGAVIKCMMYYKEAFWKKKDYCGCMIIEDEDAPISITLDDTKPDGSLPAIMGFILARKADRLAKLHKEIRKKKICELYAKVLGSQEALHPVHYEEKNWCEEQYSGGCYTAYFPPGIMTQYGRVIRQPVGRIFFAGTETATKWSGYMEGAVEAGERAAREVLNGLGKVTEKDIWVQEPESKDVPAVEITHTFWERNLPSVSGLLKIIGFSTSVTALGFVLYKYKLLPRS

CC1=C(C(=O)O)N2C(=O)[C@@H](NC(=O)[C@H](N)C3=CCC=CC3)[C@H]2SC1	> 30 µM

Name the recorded AC50 for "C[C@H](Nc1ncnc2[nH]cnc12)c1cc2cccc(Cl)c2c(=O)n1-c1ccccc1" .
> 30 µM

Subsequent entry: "CCOc1ccccc1OCCN[C@H](C)Cc1ccc(OC)c(S(N)(=O)=O)c1"
> 10 µM

Subsequent entry: "CCCCOC(=O)C(=O)Nc1cccc(-c2nnn[nH]2)c1"
> 30 µM

Subsequent entry: "CN1CCCN=C1/C=C/c1cccc(O)c1"
21 µM

###

In what follows, each item is paired with its AC50 for Histamine H1 receptor (Homo sapiens, UniProt P35367).

// known answers, use as guide
CCCO[C@H]1[C@@H]([C@@H](COCc2ccc(Cl)cc2)OCc2ccc(Cl)cc2)OC(OCC)[C@@H]1O (some centres not stated) [CLOBENOSIDE]	> 30 µM
CCN(CC)CCCN(c1ccccc1)C1Cc2ccccc2C1	1.18 µM
CCC1(CC)C(=O)NC(=O)N(C)C1=O	> 10 µM

Name the recorded AC50 for CN(C)CCOC(=O)C(c1ccccc1)C1(O)CCCC1 (configuration not stated) [CYCLOPENTOLATE] .
> 30 µM

Subsequent entry: "C=C(c1ccccc1OCc1cccc(Cl)c1)n1ccnc1"
> 10 µM

Subsequent entry: Cc1ccc(S(=O)(=O)NC(=O)N[C@H]2[C@H]3CC[C@@](C)([C@H]2O)C3(C)C)cc1 [GLIBORNURIDE]
> 30 µM

###

List of AC50 values.
molecular target: Neuronal acetylcholine receptor subunit alpha-4 (Homo sapiens); further: assay procedure not described here
Sequence (P43681 whole entry): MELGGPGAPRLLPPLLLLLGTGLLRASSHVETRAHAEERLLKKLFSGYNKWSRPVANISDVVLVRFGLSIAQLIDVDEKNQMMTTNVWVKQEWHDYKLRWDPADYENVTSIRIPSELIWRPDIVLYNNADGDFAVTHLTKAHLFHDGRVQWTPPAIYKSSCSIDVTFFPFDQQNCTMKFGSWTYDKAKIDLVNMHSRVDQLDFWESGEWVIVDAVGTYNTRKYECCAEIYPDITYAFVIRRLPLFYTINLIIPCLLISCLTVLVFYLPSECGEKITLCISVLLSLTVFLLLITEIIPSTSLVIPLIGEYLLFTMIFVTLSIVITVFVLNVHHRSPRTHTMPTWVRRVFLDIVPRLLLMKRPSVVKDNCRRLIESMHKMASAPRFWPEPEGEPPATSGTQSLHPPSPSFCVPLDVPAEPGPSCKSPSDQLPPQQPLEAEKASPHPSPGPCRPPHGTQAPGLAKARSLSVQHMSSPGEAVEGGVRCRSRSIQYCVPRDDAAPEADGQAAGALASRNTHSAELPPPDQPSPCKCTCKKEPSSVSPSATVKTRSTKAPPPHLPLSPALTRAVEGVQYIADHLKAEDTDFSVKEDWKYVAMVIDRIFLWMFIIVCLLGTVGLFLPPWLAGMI

// known answers, use as guide
O=C1[C@@H]2[C@H]3CC[C@H](C3)[C@@H]2C(=O)N1C[C@@H]1CCCC[C@H]1CN1CCN(c2nsc3ccccc23)CC1	> 10 µM
CN1CCC(=C2c3ccccc3CC(=O)c3sccc32)CC1	> 10 µM
CCC1(CC)C(=O)NC(=O)N(C)C1=O	> 10 µM
COc1nc(C)nc(Cl)c1N=C1NCCN1	> 30 µM
CN(C)CCC(O)(c1ccccc1)c1ccccc1Cl (stereo unspecified)	> 10 µM

Then this compound:
Name the recorded AC50 for CNC1(C)C2CCC(C2)C1(C)C (stereo unspecified) .
> 10 µM
